Biological target: FLT3(ITD) (Homo sapiens, UniProt P36888, ITD)
Sequence (P36888 whole entry, looked up, change not shown): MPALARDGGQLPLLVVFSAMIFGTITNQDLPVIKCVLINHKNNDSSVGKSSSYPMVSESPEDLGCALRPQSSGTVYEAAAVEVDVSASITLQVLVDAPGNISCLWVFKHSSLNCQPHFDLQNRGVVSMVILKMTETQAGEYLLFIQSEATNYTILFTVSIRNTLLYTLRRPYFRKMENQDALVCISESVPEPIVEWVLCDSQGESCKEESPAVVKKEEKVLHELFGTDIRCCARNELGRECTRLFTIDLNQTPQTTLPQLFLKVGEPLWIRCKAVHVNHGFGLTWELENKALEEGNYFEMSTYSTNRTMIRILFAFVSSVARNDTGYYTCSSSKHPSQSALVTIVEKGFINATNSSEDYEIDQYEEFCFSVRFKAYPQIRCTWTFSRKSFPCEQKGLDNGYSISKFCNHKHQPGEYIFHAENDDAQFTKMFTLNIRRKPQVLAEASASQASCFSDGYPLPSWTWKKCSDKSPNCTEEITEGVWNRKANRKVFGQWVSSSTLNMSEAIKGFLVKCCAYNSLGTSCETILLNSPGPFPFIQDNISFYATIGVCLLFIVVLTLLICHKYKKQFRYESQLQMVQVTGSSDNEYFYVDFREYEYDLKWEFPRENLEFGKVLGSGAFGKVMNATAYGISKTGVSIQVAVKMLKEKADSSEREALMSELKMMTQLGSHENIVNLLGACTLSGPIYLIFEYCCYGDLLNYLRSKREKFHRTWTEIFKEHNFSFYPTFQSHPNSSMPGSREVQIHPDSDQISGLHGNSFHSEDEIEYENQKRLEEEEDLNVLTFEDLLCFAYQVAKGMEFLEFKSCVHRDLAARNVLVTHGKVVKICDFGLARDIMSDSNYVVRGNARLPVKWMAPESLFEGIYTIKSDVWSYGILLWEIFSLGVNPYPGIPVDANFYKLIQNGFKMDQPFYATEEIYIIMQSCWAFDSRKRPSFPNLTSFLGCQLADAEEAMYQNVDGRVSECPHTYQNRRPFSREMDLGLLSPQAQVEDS
Experiment: Binding to FLT3(ITD) mutant (DiscoveRx)
Structures can show the parent of a compound that is named as a salt.
What Kd was measured for each of the following?
Please respond with the number in nM and leave the unit unwritten.

Can you share its Kd? I mean this molecule: CC(C)n1c(N2CCNCC2)nc2c([N+](=O)[O-])c(Br)c(Br)cc21 [Example 2A, hydrochloride]
18

// query Kd value for entry CCn1c(N2CCNCC2)nc2c([N+](=O)[O-])c(Br)c(Br)cc21 [Example 1A, hydrochloride]
74

---

Target: hERG potassium channel (Homo sapiens (Human))
Sequence (Q12809 whole entry): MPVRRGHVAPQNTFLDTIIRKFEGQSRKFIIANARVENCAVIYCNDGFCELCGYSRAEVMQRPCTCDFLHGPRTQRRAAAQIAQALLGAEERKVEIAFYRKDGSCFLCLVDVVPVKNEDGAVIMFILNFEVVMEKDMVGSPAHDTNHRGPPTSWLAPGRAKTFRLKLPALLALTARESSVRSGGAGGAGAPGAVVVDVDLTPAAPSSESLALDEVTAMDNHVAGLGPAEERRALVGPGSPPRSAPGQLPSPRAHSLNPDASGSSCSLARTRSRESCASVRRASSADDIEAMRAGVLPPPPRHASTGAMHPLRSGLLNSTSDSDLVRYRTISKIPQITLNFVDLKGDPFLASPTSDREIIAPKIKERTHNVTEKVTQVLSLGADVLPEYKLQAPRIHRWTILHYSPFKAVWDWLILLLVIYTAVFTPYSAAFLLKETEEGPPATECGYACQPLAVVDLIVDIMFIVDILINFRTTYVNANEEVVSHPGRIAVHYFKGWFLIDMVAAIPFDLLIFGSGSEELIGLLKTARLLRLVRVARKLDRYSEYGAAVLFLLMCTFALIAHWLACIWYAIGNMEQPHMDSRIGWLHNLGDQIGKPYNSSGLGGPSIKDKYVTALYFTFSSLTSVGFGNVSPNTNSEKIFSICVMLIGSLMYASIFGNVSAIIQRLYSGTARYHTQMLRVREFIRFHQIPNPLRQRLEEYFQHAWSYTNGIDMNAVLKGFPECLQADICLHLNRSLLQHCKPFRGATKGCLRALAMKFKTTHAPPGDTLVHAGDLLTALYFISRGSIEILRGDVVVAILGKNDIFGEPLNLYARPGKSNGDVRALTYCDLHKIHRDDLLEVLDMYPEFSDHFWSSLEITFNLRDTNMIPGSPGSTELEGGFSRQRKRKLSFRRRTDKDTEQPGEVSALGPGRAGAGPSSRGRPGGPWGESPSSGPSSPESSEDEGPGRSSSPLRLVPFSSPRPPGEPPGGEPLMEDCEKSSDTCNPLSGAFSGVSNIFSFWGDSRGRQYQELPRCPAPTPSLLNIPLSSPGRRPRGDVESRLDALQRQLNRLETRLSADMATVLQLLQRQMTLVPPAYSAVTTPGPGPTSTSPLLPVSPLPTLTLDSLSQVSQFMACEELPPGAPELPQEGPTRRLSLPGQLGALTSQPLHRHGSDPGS
Assay: hERG automated patch clamp assay (QPatch HT)
Details: human, 3 min
Structures can show the parent of a compound that is named as a salt.
experimentalReadout: pIC50
Keep it numeric: pIC50 is minus log10 of the concentration in mol/L.

Param readout = pIC50; param system = hERG potassium channel (Homo sapiens (Human)); param query = CCn1c(N2CCNCC2)nc2c([N+](=O)[O-])c(Br)c(Br)cc21 [Example 1A, hydrochloride] ; response: value
5.80

Value wanted: pIC50 (hERG potassium channel (Homo sapiens (Human))) of entry CC(C)n1c(N2CC[C@@H](N)C2)nc2c(C#N)c(Br)c(Br)cc21 [Example 1BI]
5.29

Entry CC(C)n1c(N2CCOC(CN)C2)nc2c([N+](=O)[O-])c(Br)c(Br)cc21 (centres unmarked) [Example 1AQ] , system hERG potassium channel (Homo sapiens (Human)): what pIC50 was measured?
5.73

Lab note: need pIC50 for CC(C)Cn1c(N2CCNCC2)nc2c([N+](=O)[O-])c(Br)c(Br)cc21 [Example 1N] on hERG potassium channel (Homo sapiens (Human)), anyone have it?
5.89

# returns recorded pIC50 (system: hERG potassium channel (Homo sapiens (Human))) for CCn1c(NCC2CCCN2)nc2c([N+](=O)[O-])c(Br)c(Br)cc21 (centres unmarked) [Example 1AM]
5.84
